Target: T1, XtrLin28b CSD W39A (Xenopus tropicalis, UniProt B4F6I0 27-114, W39A)
T1 sequence: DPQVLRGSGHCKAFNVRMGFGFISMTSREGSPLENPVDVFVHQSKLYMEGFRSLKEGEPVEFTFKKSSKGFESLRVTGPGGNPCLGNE
Test: ITC
ENDPOINT: pKd
pKd is defined as minus the log10 of a concentration measured in mol/L.

[in] May I ask what pKd has been recorded for GUCACACC (ssRNA) [rlet-7f5] ?
[out] 5.95
